Biological target: human GcgR (Homo sapiens, UniProt P47871)
Sequence (P47871 26-477): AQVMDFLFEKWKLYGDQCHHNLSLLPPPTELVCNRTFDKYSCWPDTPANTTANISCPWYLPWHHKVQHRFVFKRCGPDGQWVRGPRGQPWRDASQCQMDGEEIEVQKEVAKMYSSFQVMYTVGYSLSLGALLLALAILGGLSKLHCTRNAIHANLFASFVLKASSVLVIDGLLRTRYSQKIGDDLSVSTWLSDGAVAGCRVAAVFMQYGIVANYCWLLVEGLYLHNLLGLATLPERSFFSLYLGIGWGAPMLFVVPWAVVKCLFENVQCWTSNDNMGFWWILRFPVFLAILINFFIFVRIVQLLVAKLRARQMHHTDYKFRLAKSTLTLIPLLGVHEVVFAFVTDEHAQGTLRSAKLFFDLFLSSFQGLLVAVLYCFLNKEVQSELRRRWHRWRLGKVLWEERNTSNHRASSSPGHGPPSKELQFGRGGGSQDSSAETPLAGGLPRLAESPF
Assay: Functional cAMP activity in the presence of 1% HSA
Format: cell-based
Settings: HEK-293 clonal cell line, 1% HSA, geometric mean of relative EC50; read-out: cAMP Rel EC50, hGcgR
pEC50: −log10 of the molar value. Starred links: 1 amine or outer side, 2 acyl side, 3 side chain; linkers in the order of their positions; H or OH if unused. Non-standard residues stand in square brackets, D forms with d. Groups on a side chain read outwards from the residue. No end group written: not given here. *: point of attachment. C18 diacid = O=C(O)CCCCCCCCCCCCCCCCC(=O)*; αMePhe(2-F) = C[C@](N)(Cc1ccccc1F)C(=O)O; γGlu = O=C(O)[C@H](CCC(=O)[*:2])N[*:1]; αMe4Pal = C[C@](N)(Cc1ccncc1)C(=O)O; αMeY = C[C@](N)(Cc1ccc(O)cc1)C(=O)O; 4Pal = N[C@@H](Cc1ccncc1)C(=O)O; αMeL = CC(C)C[C@](C)(N)C(=O)O; αMeS = C[C@](N)(CO)C(=O)O; Orn = NCCC[C@H](N)C(=O)O; AEEA = NCCOCCOCC(=O)O; Aib = CC(C)(N)C(=O)O
Please use class 1 whenever pEC50 is not below 6, and class 0 whenever it is.

{"columns": ["Substance", "Class"],
 "data": [
  ["H-Y[Aib]QGT[αMePhe(2-F)]TSD[4Pal][αMeS]I[αMeL]LD[Orn]K([AEEA-γGlu-C18 diacid])AA[Aib]EFI[dE][αMeY]LIEGGPSSGAPPPSGEE-NH2 [Example 703]", "class 1"],
  ["H-Y[Aib]QGT[αMePhe(2-F)]TSD[4Pal]SI[αMeL]LDKK([γGlu-γGlu-C18 diacid])AQ[Aib][Orn]FIEYLSEGGPSSGEPPPEGSEE-NH2 [Example 651]", "class 1"],
  ["H-Y[Aib]QGT[αMePhe(2-F)]TSD[4Pal]SI[αMeL]LDKK([γGlu-γGlu-C18 diacid])AQ[Aib]AFIEYLSEGGPSSGEPPPSGSEE-NH2 [Example 632]", "class 0"],
  ["Y[Aib]QGT[αMePhe(2-F)]TSD[4Pal][αMeS]I[αMeL]LD[Orn]K([AEEA-γGlu-C18 diacid])AA[Aib]EFI[dE][αMeY]LIEGGPSSGEPPPSGTE-NH2 [Example 719]", "class 1"],
  ["Y[Aib]QGT[αMePhe(2-F)]TSD[4Pal]SI[αMeL]LD[Orn]K([AEEA-γGlu-C18 diacid])AQ[αMe4Pal][Orn]FI[dE][αMeY]LIEGGPSSGEPPPEGEG[dE]-NH2 [Example 692]", "class 1"],
  ["H-Y[Aib]QGT[αMePhe(2-F)]TSDYSI[αMeL]LDKK([AEEA-γGlu-C18 diacid])AQ[Aib]AFIEYLLETGPSSGAPPPSEG-NH2 [Example 417]", "class 1"]
]}

----------
Biological target: hGcgR (Homo sapiens, UniProt P47871)
Sequence (P47871 26-477): as the sequence (P47871 26-477) above
Assay: Functional cAMP activation in the presence of 0.1% casein (no HSA);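 further: intracellular cAMP rise after 30 min at 37 °C, read by HTRF against a cAMP standard curve, scaled from buffer only (0%) to maximal control ligand response (100%)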
Assay type: cell-based
Conditions: in the presence of 0.1% casein (no HSA); geometric mean; read-out: Relative cAMP EC50, hGcgR
Starred links: 1 amine or outer side, 2 acyl side, 3 side chain; linkers in the order of their positions; H or OH if unused. Non-standard residues stand in square brackets, D forms with d. Groups on a side chain read outwards from the residue. *: point of attachment. C18 diacid = O=C(O)CCCCCCCCCCCCCCCCC(=O)*; γGlu = O=C(O)[C@H](CCC(=O)[*:2])N[*:1]; αMeY = C[C@](N)(Cc1ccc(O)cc1)C(=O)O; 4Pal = N[C@@H](Cc1ccncc1)C(=O)O; αMeL = CC(C)C[C@](C)(N)C(=O)O; Orn = NCCC[C@H](N)C(=O)O; AEEA = NCCOCCOCC(=O)O; Aib = CC(C)(N)C(=O)O

{"columns": ["Substance", "EC50, nM"],
 "data": [
  ["H-Y[Aib]QGTFTSDFS[Orn][αMeL]LDKK([AEEA-γGlu-C18 diacid])AQ[Aib]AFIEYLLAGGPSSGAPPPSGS[AEEA]-NH2 [Example 89]", 11.6],
  ["H-Y[Aib]QGTFTSD[4Pal]SQ[αMeL]LD[Orn]K([AEEA-γGlu-C18 diacid])AQ[Aib]AFIE[αMeY]LIEGGPSSGAPPPSGS-NH2 [Example 850]", 28.4],
  ["H-Y[Aib]QGTFTSDFS[Orn][αMeL]LDKK([AEEA-γGlu-C18 diacid])AQ[Aib]AFIEYLLE[Aib]GHSSGAPPPSGS-NH2 [Example 241]", 2.71]
]}

Values compiled from patent US20240270821A1.
